Assay: Mouse PK studies after oral and IV dosing
Assay type: in vivo
Conditions: in vivo, iv, 1 mg/kg, IV, dose 1 mg/kg, read-out: IV T1/2 (converted)
# T = half-life below 7 h (exclusive); F = half-life at/above 7 h

Previously resolved entries follow.
C[C@H]1CC2(CCN(c3cnc(C(=O)N4CCC(CN5CCN(c6ccc7c(c6)C(=O)N(C6CCC(=O)NC6=O)C7=O)CC5)CC4)cn3)CC2)CN1c1ccc(C#N)c(Cl)c1 (some centres unmarked) = T
C[C@H]1CC2(CCN(c3ccc(C(=O)N4CCC(CN5CCN(c6cc7c(cc6F)C(=O)N(C6CCC(=O)NC6=O)C7=O)CC5)CC4)cc3)CC2)CN1c1ccc(C#N)c(Cl)c1 (some centres unmarked) = F

--- query ---
Exam item: I wonder whether C[C@H]1CC2(CCN(c3ccc(C(=O)N4CCC(N5CCN(c6cc7c(cc6F)C(=O)N(C6CCC(=O)NC6=O)C7=O)CC5)CC4)nn3)CC2)CN1c1ccc(C#N)c(Cl)c1 (some centres unmarked) has half-life below 7 h. Can you tell?
Marked response: T
